- Method: Solubility in PBS
- Assay type: physicochemical
Measurement type: Solubility (µM)
One number for each entry, in µM.

Look over these answered cases.
[
  {
    "Compound": "CC(=O)N1CCC[C@]12CC=CCCCC1(CCCC=CCCCCCC[C@@](C)(C(=O)N[C@@H](Cc3ccccc3)C(=O)N[C@@H](Cc3csc4ccccc34)C(=O)N[C@@H](CCC(N)=O)C(N)=O)NC(=O)[C@H](C(C)C)NC(=O)[C@H](CC3CCCC3)NC(=O)[C@H](C)NC(=O)[C@H](C)NC(=O)[C@H](CCC(=O)O)NC(=O)[C@H](CC(=O)O)NC1=O)NC(=O)[C@H](C)NC(=O)[C@H](CC(=O)O)NC2=O (some centres unmarked)",
    "Solubility / µM": 10
  },
  {
    "Compound": "CC(=O)N1CCC[C@]12CC=CCCCC1(CCCC=CCCCOC(=O)N3CC[C@@](C(=O)N[C@@H](Cc4ccccc4)C(=O)N[C@@H](Cc4csc5ccccc45)C(=O)N[C@@H](CCC(N)=O)C(N)=O)(C3)NC(=O)[C@H](CC(C)C)NC(=O)[C@H](Cc3ccccc3)NC(=O)[C@H](C)NC(=O)[C@H](C)NC(=O)[C@H]([C@@H](C)O)NC(=O)[C@H](CC(N)=O)NC1=O)NC(=O)[C@H](C)NC(=O)[C@H](CC(=O)O)NC2=O (single isomer, unassigned) [I-1295]",
    "Solubility / µM": 10
  },
  {
    "Compound": "CC(=O)N1CCC[C@]12CC=CCCCC1(CCCC=CCCCCCC[C@@](C)(C(=O)N[C@@H](Cc3cccc(F)c3)C(=O)N[C@@H](Cc3c[nH]c4ccccc34)C(=O)N[C@@H](CCC(N)=O)C(N)=O)NC(=O)[C@H](CCC(N)=O)NC(=O)[C@H](Cc3ccsc3)NC(=O)[C@H](C)NC(=O)[C@H](C)NC(=O)[C@H](CCC(=O)O)NC(=O)[C@H](CC(=O)O)NC1=O)NC(=O)[C@H](C)NC(=O)[C@H](CC(=O)O)NC2=O (some centres unmarked) [I-451]",
    "Solubility / µM": 50
  },
  {
    "Compound": "CC(=O)N1CCC[C@]12CC=CCCCC1(CCCC=CCCCCCC[C@@](C)(C(=O)N[C@@H](Cc3ccccc3)C(=O)N[C@@H](Cc3csc4ccccc34)C(=O)N[C@@H](CCC(N)=O)C(N)=O)NC(=O)[C@H]([C@@H](C)O)NC(=O)[C@H](Cc3ccccc3)NC(=O)[C@H](C)NC(=O)[C@H](C)NC(=O)[C@H](CCC(=O)O)NC(=O)[C@H](CC(=O)O)NC1=O)NC(=O)[C@H](CC(C)C)NC(=O)[C@H](CC(=O)O)NC2=O (some centres unmarked) [I-622]",
    "Solubility / µM": 45
  }
]

The reported Solubility of the compound CC(=O)N1CCC[C@]12CC=CCCCC1(CCCC=CCCCOC(=O)N3CC[C@@](C(=O)N[C@@H](Cc4ccccc4)C(=O)N[C@@H](Cc4csc5ccccc45)C(=O)N[C@@H](CCC(N)=O)C(N)=O)(C3)NC(=O)[C@H](CC(C)C)NC(=O)[C@H](Cc3ccccc3)NC(=O)[C@H](C)NC(=O)[C@H](C)NC(=O)[C@H]([C@@H](C)O)NC(=O)[C@H](CC(=O)O)NC1=O)NC(=O)[C@H](CC(C)(C)C)NC(=O)[C@H](CC(N)=O)NC2=O (single isomer, unassigned) [I-1285] was 10
